Test name: protein stability index of a GFP-peptide fusion (yeast GPS) (PSI 1-4); higher = more stable; sorted into four equal gates, so the index is relative within each strain
Condition details: doa10∆
Cut-off 2 on protein stability index, inclusive. At or above means criterion met; below means criterion not met.

QPNARALERYDEAEGRF [SMC1] : criterion met
NLNDKFGIYILTQGING [MED1] : criterion not met
LTFVSVDEELGPSIYKT [SCL1] : criterion met
KLEEESKRGNDKKHFNN [RPC53] : criterion met
NQGVNELKYQRSLRATA [RPL15A] : criterion not met
SKKDPRILKNVSPNDNN [YMR153W/NUP53] : criterion met

Okay, now this sequence:
For this sequence, is measured protein stability index 2 or higher? IAYGASQLLLERLMISS [RET1] criterion not met

###

protein stability index by entry:
Test name: protein stability index of a GFP-peptide fusion (yeast GPS) (PSI 1-4); higher = more stable; sorted into four equal gates, so the index is relative within each strain
Condition details: pdr5∆
Number only, please.

Sample answers from the record:
KIALREYINNCKKNTKK [POP4] : 2.86
FNDFSNIKTSEWDLYPQ [REC8] : 2.92
KIPLFTFAKSKNYSRPS [SIR4] : 2.12
EGIIKPISKHSKQAIYT [RPS25A] : 2.03
SFQKNSLHNTEKIMENK [AAR2] : 3.22

State the recorded protein stability index for this entry: LEGITTTIDSLNAELES [SMC3] 1.77

###

Test name: protein stability index of a GFP-peptide fusion (yeast GPS) (PSI 1-4); higher = more stable; sorted into four equal gates, so the index is relative within each strain
Condition details: doa10∆
Recorded metric: protein stability index
Number only, please.

IVKTTTKQRLDAYYDLE [PRP8] : 2.77
PVQIVKRITQITIEPGV [RPS20] : 1.74
KTTNTTPSFSFGAKSDE [YJL041W/NSP1] : 3.27
GGADQVTRTQQWSMVAQ [SWI1] : 3.15
TSEEQTKFLAKNGVIPE [SWP82] : 3.71

State the recorded protein stability index for this entry: HEVVQDDSFSLLRIQML [PCI8] 2.7

State the recorded protein stability index for this entry: HSQFMKDLKDDSIYTKP [YJL039C/NUP192] 2.83

State the recorded protein stability index for this entry: VNRQSPLFFVDLKLLFN [RGR1] 1.53

State the recorded protein stability index for this entry: ESKLRDDLERLKKIRAH [RPS18A] 2.78

###

Test name: protein stability index of a GFP-peptide fusion (yeast GPS) (PSI 1-4); higher = more stable; sorted into four equal gates, so the index is relative within each strain
Condition details: doa10∆
Recorded metric: protein stability index
Number only, please.

Sample answers from the record:
TPQQLQMIQQRHQQLLR [SNF5] : 1.9
TFLESINGINWRFHTPQ [SIN4] : 2.4

State the recorded protein stability index for this entry: NIGETAGVVQDIGSDPT [RPB9] 2.77

State the recorded protein stability index for this entry: MDSIIPAGVKLDDLQVI [PGD1] 2.5

State the recorded protein stability index for this entry: RLPVSEDTNTKPLFDFG [YOR098C/NUP1] 2.76

State the recorded protein stability index for this entry: LNAINNAEKTGKRQVLL [RPS22B] 3.35

State the recorded protein stability index for this entry: IIKQTVHPIPDVAFADG [YMR129W/POM152] 2.8

State the recorded protein stability index for this entry: TESITHDSSNGLFQVLH [NUT1] 3.12

State the recorded protein stability index for this entry: SVYGLDDISRQVARTNL [ROX3] 2.06

State the recorded protein stability index for this entry: LASEVGDPALVYKFMSL [ECM29] 2.32

State the recorded protein stability index for this entry: RLAEVNLKDLNNVKQMV [RPO21] 2.77

State the recorded protein stability index for this entry: DTVEEKKEEKLNIGKNF [SIR4] 2.42

State the recorded protein stability index for this entry: MNIIQQQQQQNTNNNDT [GAL11] 2.43

State the recorded protein stability index for this entry: FVKNIRMLSFEDISKAT [RPN9] 2.66

State the recorded protein stability index for this entry: NANQQFLPFNNSASNNG [SWI1] 3

State the recorded protein stability index for this entry: KPYVDRFAFSVIWELDD [DIS3] 1.93

State the recorded protein stability index for this entry: DRHIGCVYSGLIPDGRH [PRE10] 3.18

State the recorded protein stability index for this entry: LEDLFSYRNGMASYMLN [YJR042W/NUP85] 1.6

###

protein stability index by entry:
Test name: protein stability index of a GFP-peptide fusion (yeast GPS) (PSI 1-4); higher = more stable; sorted into four equal gates, so the index is relative within each strain
Condition details: pdr5∆
Number only, please.

YYDRKEELKNMFLYILK [RRI2] : 1.95

State the recorded protein stability index for this entry: DITVHGEQIIVHPVNER [RRP45] 2.15

State the recorded protein stability index for this entry: KNGVIPEESKGSFKYIT [SWP82] 3.09

State the recorded protein stability index for this entry: RQCFREKANDIGFHKYR [RPS29B] 3.35

State the recorded protein stability index for this entry: EVKEQLGILKKKRFDEF [SMC4] 2.68

State the recorded protein stability index for this entry: KLIEKKSAYANTEKDYK [SMC2] 2.59

State the recorded protein stability index for this entry: VSECIILGQTMSIGTGS [RPO31] 2

State the recorded protein stability index for this entry: FNVVDVGVDQLSIELEG [YJL039C/NUP192] 3.34

State the recorded protein stability index for this entry: RMERIKDHLLLEEEFVS [RPT2] 2.22

State the recorded protein stability index for this entry: PPKHTELLLTTLSVSHG [SSN2] 1.8

###

Test name: protein stability index of a GFP-peptide fusion (yeast GPS) (PSI 1-4); higher = more stable; sorted into four equal gates, so the index is relative within each strain
Condition details: san1∆
The following ranges of protein stability index define the classes used here: bottom end = under 2, midrange = from 2 up to 3, top end = 3 and over

Worked set:
HLNFPNVKFLRIFISNV [SNF12] : bottom end
TALDAEGAARGTSVYLV [DIS3] : midrange

Okay, now this sequence:
Band for the recorded protein stability index of ITHAHSLSNPNSTATMQ [PGD1] ? midrange

###

Test name: protein stability index of a GFP-peptide fusion (yeast GPS) (PSI 1-4); higher = more stable; sorted into four equal gates, so the index is relative within each strain
Condition details: ubr1∆
The following ranges of protein stability index define the classes used here: low group (below 2), middle group (2 to below 3), high group (3 or more)

Worked set:
ADLKKGKDLSPAINYTK [QCR2] : high group
NNIIAEGIEKMGVRTFS [FAS2] : middle group
GLSIHPTQITQYTQRLS [SRP68] : middle group
KTATVKINKKLNKAGKP [RPL38] : high group
FVIGEQGKPYISLPKGK [RPS4A] : middle group

Band for the recorded protein stability index of IGVETGSEPLIQQVVEY [PRP28] ? middle group

Band for the recorded protein stability index of ARGTIEIVSDVKVVDAG [RPP0] ? low group

Band for the recorded protein stability index of KRFLILQGEVENIAQMK [SMC4] ? middle group

Band for the recorded protein stability index of FTVDKKIAERSLLLKNY [SKP1] ? high group

Band for the recorded protein stability index of PIAASTDLPIETAAMAS [RPN1] ? low group

Band for the recorded protein stability index of DTFDGSDLRVLSGSISE [FAS1] ? low group

Band for the recorded protein stability index of VEINSSESDLDEDKNFP [ESC2] ? high group

Band for the recorded protein stability index of ITARSAFVEFGASVIAG [SWP82] ? middle group

Band for the recorded protein stability index of IDFTLLNRLLRLIVDPN [PRP8] ? low group

###

Test name: protein stability index of a GFP-peptide fusion (yeast GPS) (PSI 1-4); higher = more stable; sorted into four equal gates, so the index is relative within each strain
Condition details: ubr1∆
Cut-off 2 on protein stability index, inclusive. At or above means Fulfilled; below means Not fulfilled.

Worked set:
QFNATINPESREIVMPA [ITC1] : Not fulfilled
SLPRFSKPVLIVGQKNL [DIS3] : Not fulfilled

For this sequence, is measured protein stability index 2 or higher? KIADLVRIPPDQFHRDT [RPC25] Fulfilled

For this sequence, is measured protein stability index 2 or higher? GELGEIRALQPKLKEGA [YIL149C/MLP2] Fulfilled

For this sequence, is measured protein stability index 2 or higher? HVDSLIEDFVDGIANSK [SRB7] Fulfilled

For this sequence, is measured protein stability index 2 or higher? KTVQSMTQRAIQSAESI [SWI3] Not fulfilled

For this sequence, is measured protein stability index 2 or higher? EYIFEAHEIIKREEKAM [CDC53] Fulfilled
